ASSAYED_SYSTEM: Glutamate NMDA receptor (Rattus norvegicus) (UniProt P35439+Q00959+Q00960+Q00961+Q62645+Q8VHN2+Q9R1M7)
PROTOCOL_DETAILS: Evaluated in vivo for its NMDA antagonist activity by the inhibition of NMDA-induced lethality in mice
Assay type: functional, organism-based
TEST_CONDITIONS: Mus musculus; target entry is the homologue from another species
What ED50 was measured for each of the following?
Please respond with the number in mg/kg and leave the unit unwritten.

For the compound CNC12CCCCC1CCc1c(C)cc(OC)cc12 (stereo not given) , what ED50 is on record?
5.6

Moving on to the next compound: NC12CCCCC1CCc1ccc(O)cc12 (stereo not given)
5.5

Moving on to the next compound: CNC12CCCCC1CSc1ccccc12 (stereo not given)
0.7

Moving on to the next compound: c1ccc(C2(N3CCCCC3)CCCCC2)cc1
0.55

Moving on to the next compound: NC12CCCCC1COc1ccccc12 (stereo not given)
5.7

Moving on to the next compound: NC12CCCCC1CCc1ccccc12 (single isomer, unassigned; form 1)
1.3

Moving on to the next compound: COc1ccc2c(c1)C1(N)CC=CCC1CC2 (stereo not given)
2.1

Moving on to the next compound: CNC12CCCCC1CCc1ccc(OC)cc12 (stereo not given)
1

Moving on to the next compound: COc1ccc2c(c1)C1(N)CCCCC1CC2 (stereo not given)
1.2

Moving on to the next compound: CNC12CC=CCC1CCc1ccccc12 (stereo not given)
1.8

The measurements presented in this section are drawn from ChEMBL document CHEMBL1126730.
